# condition context: mdck_mdr1
property label: Papp (×10⁻⁶ cm/s)
Answer in ×10⁻⁶ cm/s, number only, no unit symbol.

Please review the following examples before continuing.
• Cn1ncc(-c2cc3c(N[C@H](c4ccc5c(c4)OCCO5)C(C)(C)C)ncnc3[nH]2)c1C#N (racemic) = 2.79
• C[C@H](C(=O)O)[C@@H](NC(=O)c1ncnc2[nH]ccc12)c1ccc(Br)cc1 (single isomer, unassigned) = 0.682
• CC(C)[C@H](Nc1ncnc2[nH]c(-c3cnn(C)c3C#N)cc12)c1ccc2c(c1)NC(=O)CO2 (racemic) = 3.07
• Cc1cc(-c2ccc([C@H](NC(=O)OCc3ccccc3)C(=O)Nc3cccc(CN)c3)cc2)cs1 (racemic) = 1.19
• O=C(Nc1ccc2c(c1)CNC2)c1cccc2[nH]c(C(F)(F)F)cc12 = 4.1

# input molecule: COc1cc(C#N)cc([C@H](Nc2ccc3c(c2)CNC3)C(=O)NCC(F)F)c1 (racemic) ; wanted: its Papp 0.5

Consider the molecule Cc1cc([C@H](Nc2ccc3c(c2)CNC3)C(=O)NCC(F)F)cc(C(F)(F)F)c1 (racemic) and give its measured Papp. 0.7

Record request: Papp value, item CC(C)[C@H](Nc1ncnc2[nH]c(-c3cnn(CC(=O)N(C)C)c3)cc12)c1ccc2c(c1)OCCO2 (racemic) 1.14

Param item = CNCc1cc(-c2cc3c(N[C@H](c4ccc5c(c4)S(=O)(=O)NCC5)C(C)C)ncnc3[nH]2)co1 (racemic) ; retrieve measured Papp. 1.2

Please look up its Papp: CC(C)[C@H](Nc1ncnc2[nH]c(-c3cnn(CC(N)=O)c3)cc12)c1ccc2c(c1)S(=O)(=O)CCC2 (racemic) 0.32

Endpoint output: Papp of `Cn1cc2c(C(=O)Nc3ccc4c(c3)CNC4)cc(F)cc2n1` . Value? 3.4

I have this molecule here, CC(C)NC(=O)[C@H](Nc1ccc2c(c1)CNC2)c1cc(Cl)cc2[nH]ncc12 (racemic) , and I need its recorded Papp. 0.963

Find the recorded Papp belonging to `O=C(Nc1cc(Cl)cc(C(=O)Nc2cccc(-c3nnn[nH]3)c2)c1)OCc1ccccc1` and report it. 5.06
